- System: Mycobacterium tuberculosis
- assay-name: Antitubercular activity against rifampin-resistant Mycobacterium tuberculosis H37Rv by microplate alamar blue assay
- Assay type: functional
test-readout: MIC90 (µM)
Reply with just the number (in µM).

Request: Provide only the value of recorded MIC90 for CC(=O)NC[C@H]1CN(c2ccc(N3CCOCC3)c(F)c2)C(=O)O1
Response: 1.14

Request: Tell me its MIC90 given NNC(=O)c1ccncc1 as the entry.
Response: 0.32

---

- Tested on: Mycobacterium tuberculosis
- assay-name: Antitubercular activity against isoniazid-resistant Mycobacterium tuberculosis H37Rv by microplate alamar blue assay
- Format: functional
Exercise: state measured MIC90 for each of the compounds provided.
Write it as a number; the unit µM goes unstated.

Request: Consider the compound CC(=O)NC[C@H]1CN(c2ccc(N3CCOCC3)c(F)c2)C(=O)O1 [LINEZOLID] . State its measured MIC90.
Response: 0.94

Request: // fetch MIC90 given entry CO[C@H]1/C=C/O[C@@]2(C)Oc3c(C)c(O)c4c(O)c(c(/C=N/N5CCN(C)CC5)c(O)c4c3C2=O)NC(=O)/C(C)=C\C=C\[C@H](C)[C@H](O)[C@@H](C)[C@@H](O)[C@@H](C)[C@H](OC(C)=O)[C@@H]1C [RIFAMPIN]
Response: 0.03

---

- Test system: Mycobacterium tuberculosis
- assay-name: Antitubercular activity against rifampin-resistant Mycobacterium tuberculosis H37Rv by microplate alamar blue assay
- Type: functional
test-readout: MIC90 (µg/mL)
Express your answer in µg/mL, writing the number without its unit.

Request: Kindly indicate its recorded MIC90. Item: CC(C)N(C(=O)CCNCCCC1CCCC1)C(C)C
Response: 1.78

Request: Consider the compound CC(C)N(C(=O)CCNCCC(c1ccccc1)c1ccccc1)C(C)C . State its measured MIC90.
Response: 3.32

---

- System: Mycobacterium tuberculosis
- assay-name: Antitubercular activity against isoniazid-resistant Mycobacterium tuberculosis H37Rv by microplate alamar blue assay
- Format: functional
Field: MIC90. Provide a value for each of the compounds that follow.

Request: Name the recorded MIC90 of the compound listed here: CC(C)N(C(=O)CCNCCCC1CCCC1)C(C)C
Response: 1.87 µg/mL

Request: Supply MIC90 value. Item: CC(C)N(C(=O)CCNCCC(c1ccccc1)c1ccccc1)C(C)C
Response: 3.01 µg/mL

Request: // fetch MIC90 given entry NNC(=O)c1ccncc1
Response: > 8 µM
